Ref: PubChem BioAssay AID518

Target System: Alkaline phosphatase, tissue-nonspecific isozyme (Homo sapiens) (UniProt P05186)
Sequence (P05186 whole entry, looked up): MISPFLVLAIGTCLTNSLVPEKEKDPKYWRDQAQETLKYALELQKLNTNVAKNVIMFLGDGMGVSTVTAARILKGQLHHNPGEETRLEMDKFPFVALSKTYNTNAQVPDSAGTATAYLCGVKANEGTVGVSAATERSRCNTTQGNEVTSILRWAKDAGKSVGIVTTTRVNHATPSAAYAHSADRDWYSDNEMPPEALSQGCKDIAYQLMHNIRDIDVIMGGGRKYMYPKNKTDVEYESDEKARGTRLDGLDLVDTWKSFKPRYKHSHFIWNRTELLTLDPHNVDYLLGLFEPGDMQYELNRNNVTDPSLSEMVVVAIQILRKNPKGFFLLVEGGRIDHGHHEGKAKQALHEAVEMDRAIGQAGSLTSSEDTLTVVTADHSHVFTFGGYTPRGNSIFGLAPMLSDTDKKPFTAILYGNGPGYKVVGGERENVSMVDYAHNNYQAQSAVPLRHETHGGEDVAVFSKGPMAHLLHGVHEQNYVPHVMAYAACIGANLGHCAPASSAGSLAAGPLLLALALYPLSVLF
Assay Name: inhibition of tissue-nonspecific alkaline phosphatase – biochemical, luminescent (AID 518);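 note: plate controls were vehicle for no effect and reference inhibitor for full effect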
Setup Conditions: purified TNAP enzyme, luminescent substrate readout; at 20 µM; stronger effect = higher value
Screen size: about 64,000 compounds; about 55 (0.09%) were called active. The list is a sample of the results.
Measured Parameter: inhibition (%)

>>> measured_value("O=C(O)c1ccc(S(=O)(=O)c2ccccc2)cc1")
8.6
>>> measured_value("COCc1[nH]nc2c1C(c1ccc(OC)cc1)C(C#N)=C(N)O2 (configuration not stated)")
16.1
>>> measured_value("Cc1ccnc(NS(=O)(=O)c2cccs2)c1")
14.5
>>> measured_value("O=S(=O)(NCCc1cn2ccccc2n1)c1cccs1")
1.2
>>> measured_value("COc1cc(/C=N/n2cnnc2)ccc1OCC(=O)N1CCOCC1")
9.7
>>> measured_value("C=CCn1c(COc2ccccc2)nnc1SCc1ccc(C#N)cc1")
5
>>> measured_value("Cc1ccc(C(C(=O)NC2CCCCC2)N(CC2CCCO2)C(=O)CNC(=O)c2ccco2)cc1 (configuration not stated)")
2.7
>>> measured_value("Cc1nn(Cc2ccccc2)c(C)c1CCC(=O)O")
7.6
>>> measured_value("O=C1C2CCCN2C(c2ccccc2)N1c1cccc(Cl)c1 (configuration not stated)")
2.8
>>> measured_value("COc1ccc(OCc2nc(C#N)c(N3CCN(c4ccc(OC)cc4)CC3)o2)cc1")
16.1
>>> measured_value("CN(C)c1oc(-c2ccc(OCc3ccc(Cl)cc3)cc2)nc1C#N")
5.2
>>> measured_value("Nc1c(S(=O)(=O)c2cccc(Cl)c2)c2nc3ccccc3nc2n1/N=C/c1ccc(O)c(O)c1")
11.3
>>> measured_value("CCCCCN=C(C)c1c(O)c2ccccc2oc1=O")
7.3
>>> measured_value("O=c1cc(-c2ccccc2)nc2nc(COc3ccccc3)[nH]n12")
1.9
>>> measured_value("Cc1nc2sc(C(c3cccc(F)c3)N3CCCC(C)C3)c(O)n2n1 (configuration not stated)")
5.8
>>> measured_value("CCN1C(=O)C(Cc2nc3ccccc3c(=O)n2C)c2ccccc21 (configuration not stated)")
10.6
>>> measured_value("Cc1ccc(-c2nc(CS(=O)CC(=O)NCc3ccccn3)c(C)o2)cc1 (configuration not stated)")
-7.5
>>> measured_value("CCN(CC)CCCN1C(=O)C(=O)/C(=C(/O)c2ccc3c(c2)OCCO3)C1c1ccc(C)o1 (configuration not stated)")
6.3
>>> measured_value("Cc1ccc(S(=O)c2ccc(C)cc2)cc1")
4.1
>>> measured_value("O=c1c2ccccc2nc2n1CCCS2")
4.5
>>> measured_value("CC12CN3CC(C)(CN(C1)C3c1ccccc1Cl)C2O (configuration not stated)")
3.8
>>> measured_value("Cc1nccn1CCC(=O)O")
5.3
>>> measured_value("CCn1c2ccccc2c2nnc(SCC(=O)c3ccccc3)nc21")
14.3
>>> measured_value("CCOc1ccc(C2C(C#N)=C(N)Oc3nc[nH]c(=O)c32)cc1OC (configuration not stated)")
4.4
>>> measured_value("O=c1[nH]c(-c2ccccc2O)nc2c1CCCC2")
8.8
>>> measured_value("CCn1c(CNC(=O)c2cccs2)nnc1SCC(=O)NCCc1ccccc1")
14
>>> measured_value("Cc1ccc(N(CC(=O)N2CCN(c3ccc(F)cc3)CC2)S(=O)(=O)c2c(C)nn(C)c2C)cc1")
8.6
>>> measured_value("COc1ccc(CN2CCC(C(=O)N(C)CCc3ccc(OC)c(OC)c3)CC2)c(OC)c1")
14
>>> measured_value("COc1ccc(CNS(=O)(=O)c2ccc(C3CNC(=O)C3)cc2)cc1 (configuration not stated)")
8.2
>>> measured_value("COCc1[nH]nc2c1C(c1ccc(OC)c(OC)c1)C(C#N)=C(N)O2 (configuration not stated)")
7.1
>>> measured_value("Cn1c2ccccc2c2nnc(SCN3C(=O)c4ccccc4C3=O)nc21")
8.4
>>> measured_value("CN(Cc1ccccc1)Cc1c(F)cccc1F")
5.6
>>> measured_value("COC(=O)c1nc(NC(=O)C(C)C)n[nH]1")
5.3
>>> measured_value("COc1ccc(OC)c2c1CCC2=O")
8.1
>>> measured_value("CN(CCCNC(=O)C1CCC(=O)N1Cc1ccc(F)cc1)c1ccccc1 (configuration not stated)")
1.1
>>> measured_value("CC1=C(c2ccc(Cl)cc2)[N+](=O)C(C)(C)N1[O-]")
20.3
>>> measured_value("c1ccc2c(c1)CNc1ccccc1C2")
5
